Taken from patent US10781224B2.

- Test system: winter wheat (Vershin variety)
- test_method_notes: Winter wheat seed treatment with BHMPA salts: germinating power (length and mass of roots and sprouts)
- Assay type: in vivo
- test_context: 1·10^−7% solution
Use True when the recorded Mass, wet, root is no lower than 3 g/100 plantlings; use False when it is lower.

Exercise: Textbook exercise: given the entry O=P([O-])(CO)CO.O=P([O-])(CO)CO.[Ca+2] [Ca-salt, Calcium BHMPA Salt] , state whether its Mass, wet, root is greater than or equal to 3 g/100 plantlings.
Key: True

Exercise: Hello, I need to know if O=P([O-])(CO)CO.O=P([O-])(CO)CO.[Zn+2] [Zn-salt, Zinc BHMPA Salt] has measured Mass, wet, root not below 3 g/100 plantlings. Thanks!
Key: False

Exercise: Given the entry O.O.O=P([O-])(CO)CO.O=P([O-])(CO)CO.[Mn+2] [Mn-salt, Manganese BHMPA Salt] , answer whether its Mass, wet, root meets or surpasses 3 g/100 plantlings.
Key: False

Exercise: Form field: Mass, wet, root at least 3 g/100 plantlings? Entry: O=P([O-])(CO)CO.O=P([O-])(CO)CO.[Mg+2] [Mg-salt, Magnesium BHMPA Salt]
Key: False

Exercise: Assess whether reported Mass, wet, root for O=P([O-])(CO)CO.[Na+] [Na-salt, Sodium BHMPA Salt] sits at 3 g/100 plantlings or higher.
Key: False

---

- Test system: rice (Diamant variety)
- test_method_notes: Rice seed treatment with BHMPA salts: germinating power
- Type: in vivo
- test_context: rice seeds; solution concentration 1 · 10^−11%
Quick rule: Mass, wet, root, + % to control of at least 30% means y, below that means n.

O=P([O-])(CO)CO.O=P([O-])(CO)CO.[Mg+2] [Mg-salt, Magnesium BHMPA Salt] = y
O.O.O=P([O-])(CO)CO.O=P([O-])(CO)CO.[Mn+2] [Mn-salt, Manganese BHMPA Salt] = y
O=P([O-])(CO)CO.[Na+] [Na-salt, Sodium BHMPA Salt] = y
O.O.O=P([O-])(CO)CO.O=P([O-])(CO)CO.[Co+2] [Co-salt, Cobalt BHMPA Salt] = n

Turning now to a further compound:
Exercise: Does Mass, wet, root, + % to control meet or surpass 30% for O=P([O-])(CO)CO.O=P([O-])(CO)CO.[Ca+2] [Ca-salt, Calcium BHMPA Salt] ?
Key: n

---

- System: winter wheat (Vershin variety)
- test_method_notes: Winter wheat seed treatment with BHMPA salts: germinating power (length and mass of roots and sprouts)
- Format: in vivo
- test_context: 1·10^−11% solution
Classify: met when Mass, dry, root is strictly less than 0.5 g/100 plantlings; not met when Mass, dry, root is not.

Please review the entries below; each comes with its answer.
O=P([O-])(CO)CO.O=P([O-])(CO)CO.[Ca+2] [Ca-salt, Calcium BHMPA Salt] = met
O=P([O-])(CO)CO.O=P([O-])(CO)CO.[Zn+2] [Zn-salt, Zinc BHMPA Salt] = not met
O.O.O=P([O-])(CO)CO.O=P([O-])(CO)CO.[Co+2] [Co-salt, Cobalt BHMPA Salt] = not met
O.O.O=P([O-])(CO)CO.O=P([O-])(CO)CO.[Mn+2] [Mn-salt, Manganese BHMPA Salt] = not met
O=P([O-])(CO)CO.O=P([O-])(CO)CO.[Mg+2] [Mg-salt, Magnesium BHMPA Salt] = not met

Next:
Exercise: In the record for O=P([O-])(CO)CO.[Na+] [Na-salt, Sodium BHMPA Salt] , is Mass, dry, root less than 0.5 g/100 plantlings?
Key: met
